Here the recorded percentage of input antibody bound is given for each entry.
# assayTarget: T1, human glycophorin A on human red blood cells or red blood cell membranes (human, UniProt P02724 20-150)
# T1 construct: whole, on cells; also called hRBC; human RBC membranes
# T1 sequence (looked up): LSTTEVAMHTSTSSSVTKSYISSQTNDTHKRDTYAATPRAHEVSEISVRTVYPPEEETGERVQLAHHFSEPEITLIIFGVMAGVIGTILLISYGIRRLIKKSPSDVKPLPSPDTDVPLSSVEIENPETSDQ
# assayNotes: Fab on intact human RBC, unbound Fab by ELISA; 5 min after 200-fold dilution
Give the value, in units of %, as a plain number.

Previously resolved entries follow.
- TPP-7790, affinity matured 6C12 Fab (Fab, V domains shown, Tested as Fab with a 6xHIS tag) VH: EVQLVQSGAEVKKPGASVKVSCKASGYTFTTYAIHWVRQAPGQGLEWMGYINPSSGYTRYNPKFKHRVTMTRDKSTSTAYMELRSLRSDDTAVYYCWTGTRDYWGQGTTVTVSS VL: DIQLTQSPSFLSASVGDRVTITCRASSSVRYIYWFQQKPGKAPKLLIYATSFLQSGVPSRFSGSGSGTEYTLTISSLQPEDFATYYCHQRNSFPYTFGQGTKLEIK: 89
- TPP-7778, affinity matured 6C12 Fab (Fab, V domains shown, Tested as Fab) VH: EVQLVQSGAEVKKPGASVKVSCKASGYTFTTYAIHWVRQAPGQGLEWMGYINPSSGYTRYNPKFKHRVTMTRDKSTSTAYMELRSLRSDDTAVYYCQTGTRDYWGQGTTVTVSS VL: DIQLTQSPSFLSASVGDRVTITCRASSSVRYIYWFQQKPGKAPKLLIYATSTLQSGVPSRFSGSGSGTEYTLTISSLQPEDFATYYCHQRNSFPYTFGQGTKLEIK: 76

Proceed to the following item.
[in] Determine its reported percentage of input antibody bound: TPP-5906, humanized and germlined 6C12 Fab; VL: (S24R, A26S, S49A, P54Q, F95Y); VH: (I48M, D56G, D66G, L70M, T72R) (Fab, V domains shown, The text says that a 6xHIS tag is present on the Fabs in the peptide ELISA; it is not in the printed chains) VH: EVQLVQSGAEVKKPGASVKVSCKASGYTFTTYTIHWVRQAPGQGLEWMGYINPSSGYTRYNPKFKGRVTMTRDKSTSTAYMELRSLRSDDTAVYYCQTGTRDYWGQGTTVTVSS VL: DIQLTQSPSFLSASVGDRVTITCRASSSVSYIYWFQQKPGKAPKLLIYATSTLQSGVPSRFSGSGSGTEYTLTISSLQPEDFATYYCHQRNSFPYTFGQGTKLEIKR
[out] 28
